# System: Escherichia coli TOP10
# Test Name: shrunken log2 fold change of peptide-encoding DNA abundance (4.5 h post-induction vs induction); higher = less antimicrobial activity (less host growth inhibition)
# Experimental Context: time post-induction: 4.5 h; library: site-saturation at positions 5, 18, 19, 20
Attribute Measured: shrunken log2 fold change
Answer using only a numeral; do not append any unit.

Consider the following illustrative entries.
Looking up RRIRDRPPRLPRPRPRPTMLPRP , I found its shrunken log2 fold change recorded as 0.138

For RRIRPRPPRLPRPRPRPRKAPRP the sequence record lists shrunken log2 fold change as 0.0787

GET /value?item= RRIRRRPPRLPRPRPRPCKKPRP &field=shrunken log2 fold change returns 0.0185

Data point: RRIRIRPPRLPRPRPRPSFMPRP ; shrunken log2 fold change = -0.871

# shrunken log2 fold change of RRIRKRPPRLPRPRPRPPYPPRP = 0.0247

Lab note: measured shrunken log2 fold change of RRIRTRPPRLPRPRPRPLDHPRP was -0.186

For reference, reported shrunken log2 fold change for RRIRERPPRLPRPRPRPTINPRP stands at -0.399

Next sequence, shrunken log2 fold change to be filled in.
# sequence RRIRCRPPRLPRPRPRPEEYPRP ; its shrunken log2 fold change = -0.065

----------
We begin with a simple list: items and their reported shrunken log2 fold change.
# Test system: Escherichia coli TOP10
# Test Name: shrunken log2 fold change of peptide-encoding DNA abundance (4.5 h post-induction vs induction); higher = less antimicrobial activity (less host growth inhibition)
# Experimental Context: time post-induction: 4.5 h; library: site-saturation at positions 5, 18, 19, 20
// no unit, no text: just the number

Example entries begin here.
Value of shrunken log2 fold change reported for the sequence RRIRARPPRLPRPRPRPMWLPRP is 0.0028

shrunken log2 fold change recorded for this sequence, RRIRCRPPRLPRPRPRPGTCPRP , is -0.143

***
Summary for this sequence, RRIRHRPPRLPRPRPRPSMRPRP : shrunken log2 fold change is 0.204

// shrunken log2 fold change lookup, sequence = RRIRNRPPRLPRPRPRPTVVPRP , result: 0.229

shrunken log2 fold change measured on RRIRFRPPRLPRPRPRPHIAPRP = -0.532

The sequence identified as RRIRVRPPRLPRPRPRPVKNPRP registered its shrunken log2 fold change at 0.118

Input RRIRSRPPRLPRPRPRPDPEPRP . Output shrunken log2 fold change: 0.183

shrunken log2 fold change measured on RRIRWRPPRLPRPRPRPAFFPRP = 0.111

----------
# Tested on: Escherichia coli TOP10
# Test Name: shrunken log2 fold change of peptide-encoding DNA abundance (4.5 h post-induction vs induction); higher = less antimicrobial activity (less host growth inhibition)
# Experimental Context: time post-induction: 4.5 h; library: site-saturation at positions 5, 18, 19, 20
Attribute Measured: shrunken log2 fold change
Provide a numeric answer; units are not to be included.

Here is how some sequences turned out for shrunken log2 fold change.
Measured on Escherichia coli TOP10, RRIRIRPPRLPRPRPRPGFLPRP has a documented shrunken log2 fold change of -0.328

For the sequence RRIRWRPPRLPRPRPRPVMAPRP , the measured shrunken log2 fold change on Escherichia coli TOP10 was 0.171

Entry RRIRCRPPRLPRPRPRPCPGPRP , tested on Escherichia coli TOP10, has a reported shrunken log2 fold change of -0.191

Escherichia coli TOP10 assay, sequence RRIRFRPPRLPRPRPRPQYWPRP , recorded shrunken log2 fold change = -0.462

Case RRIRYRPPRLPRPRPRPHYFPRP , Escherichia coli TOP10, shrunken log2 fold change recorded as -0.833

Query sequence follows.
Record for RRIRNRPPRLPRPRPRPHVEPRP under target or system Escherichia coli TOP10: shrunken log2 fold change reported as -0.326

----------
Overview of reported shrunken log2 fold change across a group of sequences:
# System: Escherichia coli TOP10
# Test Name: shrunken log2 fold change of peptide-encoding DNA abundance (4.5 h post-induction vs induction); higher = less antimicrobial activity (less host growth inhibition)
# Experimental Context: time post-induction: 4.5 h; library: site-saturation at positions 5, 18, 19, 20
# respond with the number and nothing more

So, RRIRERPPRLPRPRPRPICVPRP ? Its shrunken log2 fold change was -0.301

Documented shrunken log2 fold change of RRIRHRPPRLPRPRPRPCMAPRP : -0.213

For reference, reported shrunken log2 fold change for RRIRRRPPRLPRPRPRPTYVPRP stands at 0.00831

Reported shrunken log2 fold change for RRIRFRPPRLPRPRPRPINHPRP was -0.511

Reported shrunken log2 fold change ( RRIRGRPPRLPRPRPRPSKDPRP ) = 0.0908

Consider RRIRCRPPRLPRPRPRPKHCPRP . Its measured shrunken log2 fold change is -0.166

----------
# Test system: Escherichia coli TOP10
# Test Name: shrunken log2 fold change of peptide-encoding DNA abundance (4.5 h post-induction vs induction); higher = less antimicrobial activity (less host growth inhibition)
# Experimental Context: time post-induction: 4.5 h; library: site-saturation at positions 5, 18, 19, 20
Attribute Measured: shrunken log2 fold change
Field format: numeric only.

Kindly note the recorded shrunken log2 fold change for RRIRFRPPRLPRPRPRPWPNPRP , which is -0.086

The reported shrunken log2 fold change of the sequence RRIRIRPPRLPRPRPRPIPVPRP was -0.0943

Data point: RRIRIRPPRLPRPRPRPRKVPRP ; shrunken log2 fold change = -0.0904

# shrunken log2 fold change (sequence: RRIRGRPPRLPRPRPRPRQWPRP ) is 0.585

Further cases:
Value of measured shrunken log2 fold change for the entry RRIRKRPPRLPRPRPRPDSLPRP : 0.00855

Recorded result, RRIRPRPPRLPRPRPRPYQTPRP , shrunken log2 fold change: 0.0331

Lab note: RRIRIRPPRLPRPRPRPHGHPRP gave shrunken log2 fold change of -0.216

Reported shrunken log2 fold change ( RRIRERPPRLPRPRPRPLFAPRP ) = -0.0197

----------
# System: Escherichia coli TOP10
# Test Name: shrunken log2 fold change of peptide-encoding DNA abundance (4.5 h post-induction vs induction); higher = less antimicrobial activity (less host growth inhibition)
# Experimental Context: time post-induction: 4.5 h; library: site-saturation at positions 5, 18, 19, 20
Attribute Measured: shrunken log2 fold change
Lab note: jot the number down without any unit.

// sample RRIRVRPPRLPRPRPRPQNMPRP , its shrunken log2 fold change was -0.465

---
So, RRIRSRPPRLPRPRPRPPRPPRP ? Its shrunken log2 fold change was 0.684

Sure, the documented shrunken log2 fold change for RRIRPRPPRLPRPRPRPSIKPRP is -0.33

Form: sequence = RRIRSRPPRLPRPRPRPMLPPRP ; shrunken log2 fold change = -0.078

Kindly note the recorded shrunken log2 fold change for RRIRSRPPRLPRPRPRPCEKPRP , which is -0.475

Item: RRIRWRPPRLPRPRPRPCFAPRP | shrunken log2 fold change: 0.263

----------
# Test system: Escherichia coli TOP10
# Test Name: shrunken log2 fold change of peptide-encoding DNA abundance (4.5 h post-induction vs induction); higher = less antimicrobial activity (less host growth inhibition)
# Experimental Context: time post-induction: 4.5 h; library: site-saturation at positions 5, 18, 19, 20
Entry flag: Fulfilled if shrunken log2 fold change reaches -0.08; Not fulfilled if it does not.

stdin: Test whether the sequence RRIRVRPPRLPRPRPRPVCFPRP records shrunken log2 fold change of -0.08 or higher.
stdout: Fulfilled

stdin: Given the entry RRIRCRPPRLPRPRPRPCVPPRP , answer whether its shrunken log2 fold change meets or surpasses -0.08.
stdout: Not fulfilled

stdin: Hello, I need to know if RRIRWRPPRLPRPRPRPKLYPRP has measured shrunken log2 fold change not below -0.08. Thanks!
stdout: Fulfilled

stdin: API: above_or_equal(metric=shrunken log2 fold change, cutoff=-0.08) for item RRIRVRPPRLPRPRPRPNNDPRP
stdout: Not fulfilled

stdin: I'd appreciate it if you could say whether RRIRFRPPRLPRPRPRPHQHPRP has shrunken log2 fold change at least equal to -0.08.
stdout: Not fulfilled

stdin: API: above_or_equal(metric=shrunken log2 fold change, cutoff=-0.08) for item RRIRERPPRLPRPRPRPFDMPRP
stdout: Fulfilled

stdin: Exam item: decide whether the reported shrunken log2 fold change for RRIRQRPPRLPRPRPRPPTQPRP is at least -0.08.
stdout: Fulfilled

stdin: Reported shrunken log2 fold change at or above -0.08? RRIRCRPPRLPRPRPRPHEMPRP
stdout: Fulfilled

----------
# Tested on: Escherichia coli TOP10;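 further: peptides expressed intracellularly from a pBAD plasmid library in pooled LB shake-flask culture, induced with 0.3% L-arabinose, DNA abundance read by NGS, three biological replicates, DESeq2 with apeglm shrinkage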
# Test Name: shrunken log2 fold change of peptide-encoding DNA abundance (4.5 h post-induction vs induction); higher = less antimicrobial activity (less host growth inhibition)
# Experimental Context: time post-induction: 4.5 h; library: site-saturation at positions 5, 18, 19, 20
Threshold rule: shrunken log2 fold change greater than or equal to 0.01 is fulfilled; below that, not fulfilled.

stdin: Is it the case that RRIRERPPRLPRPRPRPNVCPRP has shrunken log2 fold change reaching or exceeding 0.01?
stdout: not fulfilled

stdin: Is shrunken log2 fold change at least 0.01? Consider RRIRCRPPRLPRPRPRPGSGPRP
stdout: fulfilled

stdin: Hi, just wondering whether RRIRQRPPRLPRPRPRPSRCPRP shows shrunken log2 fold change of 0.01 or higher.
stdout: not fulfilled

New cases:
stdin: Check this sequence for shrunken log2 fold change at or above 0.01: RRIRVRPPRLPRPRPRPLHSPRP
stdout: not fulfilled

stdin: Form field: shrunken log2 fold change at least 0.01? Entry: RRIRTRPPRLPRPRPRPDEEPRP
stdout: fulfilled

stdin: Confirm if shrunken log2 fold change reported for the sequence RRIRCRPPRLPRPRPRPRWGPRP is 0.01 or above.
stdout: fulfilled

stdin: API: above_or_equal(metric=shrunken log2 fold change, cutoff=0.01) for item RRIRYRPPRLPRPRPRPSYMPRP
stdout: not fulfilled

stdin: Item RRIRKRPPRLPRPRPRPVNVPRP with shrunken log2 fold change of 0.01 or above?
stdout: fulfilled

stdin: Kindly determine if shrunken log2 fold change recorded for RRIRMRPPRLPRPRPRPRRMPRP is above or exactly 0.01.
stdout: fulfilled

stdin: Test whether the sequence RRIRPRPPRLPRPRPRPTCWPRP records shrunken log2 fold change of 0.01 or higher.
stdout: fulfilled

Origin of measurements: the supplement of paper PMC9112550
